pEC50 for assorted compounds
# target-under-test: Poly [ADP-ribose] polymerase tankyrase-2 (Homo sapiens, UniProt Q9H2K2)
# Sequence (Q9H2K2 whole entry): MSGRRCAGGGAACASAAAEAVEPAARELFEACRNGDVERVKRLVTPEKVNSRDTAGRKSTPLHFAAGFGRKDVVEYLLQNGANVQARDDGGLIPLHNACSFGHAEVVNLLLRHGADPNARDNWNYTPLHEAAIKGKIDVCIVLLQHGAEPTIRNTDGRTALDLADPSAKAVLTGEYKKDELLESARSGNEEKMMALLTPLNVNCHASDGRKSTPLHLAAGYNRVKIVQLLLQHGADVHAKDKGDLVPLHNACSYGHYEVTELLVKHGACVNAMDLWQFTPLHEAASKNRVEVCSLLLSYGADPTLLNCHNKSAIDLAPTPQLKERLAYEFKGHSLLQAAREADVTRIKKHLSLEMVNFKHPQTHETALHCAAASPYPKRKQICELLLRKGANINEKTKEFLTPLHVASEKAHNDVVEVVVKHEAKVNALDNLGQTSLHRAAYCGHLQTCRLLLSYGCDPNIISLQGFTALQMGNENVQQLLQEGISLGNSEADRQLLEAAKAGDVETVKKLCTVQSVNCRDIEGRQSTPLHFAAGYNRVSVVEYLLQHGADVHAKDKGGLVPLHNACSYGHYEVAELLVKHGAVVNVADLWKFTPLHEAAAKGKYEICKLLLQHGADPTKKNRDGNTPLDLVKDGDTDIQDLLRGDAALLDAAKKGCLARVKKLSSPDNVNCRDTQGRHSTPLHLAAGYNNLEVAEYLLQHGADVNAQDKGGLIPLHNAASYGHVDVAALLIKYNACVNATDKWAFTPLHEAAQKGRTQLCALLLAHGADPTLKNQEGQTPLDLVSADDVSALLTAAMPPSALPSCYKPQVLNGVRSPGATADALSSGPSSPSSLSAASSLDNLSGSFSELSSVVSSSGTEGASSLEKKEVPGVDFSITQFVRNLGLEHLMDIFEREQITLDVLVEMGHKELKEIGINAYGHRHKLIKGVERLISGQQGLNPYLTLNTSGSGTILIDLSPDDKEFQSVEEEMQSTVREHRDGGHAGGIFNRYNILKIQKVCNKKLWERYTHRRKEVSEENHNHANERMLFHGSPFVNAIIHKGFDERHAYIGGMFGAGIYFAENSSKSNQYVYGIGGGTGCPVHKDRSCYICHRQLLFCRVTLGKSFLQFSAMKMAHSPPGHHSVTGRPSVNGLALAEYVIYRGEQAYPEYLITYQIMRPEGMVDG
# experimental-protocol: Activity of N-terminus hexaHis-tagged human TNSK2 expressed in Escherichia coli BL21 (DE3) cells using biotinylated NAD+ as substrate after 90 mins by Western blot analysis
pEC50: −log10 of the molar value.

smi: O=C(Nc1ccccc1)c1ccc(-n2c(O)c3c(c2O)[C@H]2C=C[C@@H]3C2)cc1
target-under-test: Poly [ADP-ribose] polymerase tankyrase-2 (Homo sapiens, UniProt Q9H2K2)
pEC50: < 4.60

Q: Write down pEC50 measured for item O=C(NC1CCCCC1)c1ccc(-n2c(O)c3c(c2O)[C@H]2C=C[C@@H]3C2)cc1
Result: < 4.60
